# target: SCD1 (Homo sapiens, UniProt O00767)
# Construct: host or cells: S. cerevisiae ole1Δ strain (W303 pdr1Δ pdr3Δ background), plasmid pRS316 with TDH3 promoter and CYC1 terminator
# Sequence (O00767 whole entry): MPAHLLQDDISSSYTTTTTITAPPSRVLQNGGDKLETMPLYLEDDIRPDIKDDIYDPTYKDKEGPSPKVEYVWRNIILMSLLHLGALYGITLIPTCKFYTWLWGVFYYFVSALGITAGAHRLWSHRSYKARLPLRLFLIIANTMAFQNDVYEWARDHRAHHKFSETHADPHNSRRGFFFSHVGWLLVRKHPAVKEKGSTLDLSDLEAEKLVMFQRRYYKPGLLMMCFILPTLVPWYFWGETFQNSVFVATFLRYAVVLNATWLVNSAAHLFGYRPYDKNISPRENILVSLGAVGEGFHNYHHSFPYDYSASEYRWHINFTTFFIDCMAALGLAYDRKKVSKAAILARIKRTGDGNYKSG
# assay-text: Growth inhibition of humanized yeast strain expressing SCD1 as sole desaturase
# Format: cell-based
# condition-notes: humanized yeast strain expressing SCD1
List of IC50 values.
metric: IC50

compound="O=C(C1CC(=O)N(c2cccc(Cl)c2)C1)N1CCC(c2nc(N3CC4(COC4)C3)no2)CC1 (stereo not shown)" target="SCD1 (Homo sapiens, UniProt O00767)" data_value="> 45 µM"
compound="CC(C)n1ncc2ccc(-c3noc(C4CCN(C(=O)CNC(=O)c5cccc(F)c5)CC4(F)F)n3)cc21 (stereo not shown)" target="SCD1 (Homo sapiens, UniProt O00767)" data_value="> 45 µM"
compound=CC(C)n1ncc2ccc(-c3nc(C4CN(C(=O)OC(C)(C)C)C4)no3)cc21 target="SCD1 (Homo sapiens, UniProt O00767)" data_value="31.8 µM"
compound="Cc1cccc(-c2nc(C3CCN(C(=O)[C@H]4CC(=O)N(c5ccc(C)c(C)c5)C4)CC3)no2)c1 (single isomer, unassigned)" target="SCD1 (Homo sapiens, UniProt O00767)" data_value="33.7 µM"

* * *

# target: Ole1 (Saccharomyces cerevisiae, UniProt P21147)
# Construct: expressed in transfected cells; host or cells: S. cerevisiae ole1Δ strain (W303 pdr1Δ pdr3Δ background), plasmid pRS316 with TDH3 promoter and CYC1 terminator
# Sequence (P21147 whole entry): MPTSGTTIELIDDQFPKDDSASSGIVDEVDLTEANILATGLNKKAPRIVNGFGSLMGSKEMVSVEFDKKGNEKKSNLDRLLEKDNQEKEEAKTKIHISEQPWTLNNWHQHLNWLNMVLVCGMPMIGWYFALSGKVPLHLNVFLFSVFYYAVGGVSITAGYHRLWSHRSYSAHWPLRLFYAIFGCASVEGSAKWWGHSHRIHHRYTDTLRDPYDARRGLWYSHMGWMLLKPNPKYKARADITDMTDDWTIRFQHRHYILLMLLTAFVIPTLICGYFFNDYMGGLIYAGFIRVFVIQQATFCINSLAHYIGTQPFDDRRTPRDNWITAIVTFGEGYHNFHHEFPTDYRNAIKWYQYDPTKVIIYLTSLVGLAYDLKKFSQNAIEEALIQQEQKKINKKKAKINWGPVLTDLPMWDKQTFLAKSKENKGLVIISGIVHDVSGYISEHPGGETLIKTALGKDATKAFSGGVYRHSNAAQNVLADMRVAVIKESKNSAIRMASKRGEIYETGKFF
# assay-text: Growth inhibition of yeast strain expressing Ole1 as sole desaturase
# Format: cell-based
# condition-notes: yeast strain expressing Ole1 as sole desaturase
List of OLE1 % Max Inhibition values.
metric: OLE1 % Max Inhibition

molecule="CC(C)n1cc2ccc(-c3noc(C4CCN(C(=O)OC(C)(C)C)CC4)n3)cc2n1 [Compound 277]" data_value=94.36%
molecule="Cc1nn(C)c2cc(-c3noc(C4CCN(C(=O)NC(C)(C)C)CC4)n3)ccc12 [Compound 282]" data_value=110.18%
molecule="Cc1nn(C)c2cc(-c3noc(N4CCN(C(=O)c5cc(-c6ccccc6)no5)CC4)n3)ccc12 [Compound 103]" data_value=5.27%
molecule="CC(C)c1ccc(C(=O)N2CCC(c3noc(-c4cccc(F)c4)n3)CC2)cc1 [Compound 52]" data_value=11.78%
molecule="Cn1c(=O)n(C)c2cc(-c3noc(C4CCN(C(=O)CNC(=O)c5ccccc5)CC4)n3)ccc21 [Compound 122]" data_value=109.89%
molecule="N#Cc1cccc(N2CC(C(=O)N3CCC(c4nc(Cl)no4)CC3)CC2=O)c1 (centres unmarked) [Compound 350]" data_value=71.00%
molecule="COc1ccc(-c2noc(C3CCN(C(=O)[C@H](NC(=O)c4ccccc4)C4CC4)CC3)n2)cc1OC [Compound 190]" data_value=100.94%
molecule="Cc1nn(C)c2cc(-c3noc(C4CCN(C(=O)c5ccc(C(C)C)cc5)CC4)n3)ccc12 [Compound 290]" data_value=20.6%

* * *

List of pIC50 values.
# target: SCD5 (Homo sapiens, UniProt Q86SK9)
# Construct: host or cells: S. cerevisiae ole1Δ strain (W303 pdr1Δ pdr3Δ background), plasmid pRS316 with TDH3 promoter and CYC1 terminator
# Sequence (Q86SK9 whole entry): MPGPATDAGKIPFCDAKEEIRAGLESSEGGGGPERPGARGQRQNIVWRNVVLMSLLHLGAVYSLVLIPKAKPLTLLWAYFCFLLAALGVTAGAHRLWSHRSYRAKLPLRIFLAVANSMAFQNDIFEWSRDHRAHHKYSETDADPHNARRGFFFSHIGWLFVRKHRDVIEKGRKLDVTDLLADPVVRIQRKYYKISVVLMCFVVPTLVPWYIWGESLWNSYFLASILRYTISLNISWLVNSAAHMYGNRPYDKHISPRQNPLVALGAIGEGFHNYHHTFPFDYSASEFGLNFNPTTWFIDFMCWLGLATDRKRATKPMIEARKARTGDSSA
# assay-text: Growth inhibition of humanized yeast strain expressing SCD5 as sole desaturase
# Assay type: cell-based
# condition-notes: humanized yeast strain, 40 h
pIC50: −log10 of the molar value.
metric: pIC50

molecule="C=C(C)c1ncn2ccc(-c3noc(C4CCN(C(=O)OC(C)(C)C)CC4)n3)cc12 [Compound 855]" metric=pIC50 relation_qualifier=< data_value=4.35
molecule="CC(C)n1ncc2ccc(-c3noc(C4CCN(C(=O)C5(O)CC5)CC4)n3)cc21 [Compound 779]" metric=pIC50 relation_qualifier== data_value=4.82
molecule="CC1(OC(=O)N2CCC(c3noc(-c4ccnc(N5CCC(F)(F)C5)c4)n3)CC2)CC1 [Compound 1171]" metric=pIC50 relation_qualifier== data_value=7.51
molecule="CC(C)(C)OC(=O)N1CCC(c2nc(-c3ccc4cnn([C@H]5C[C@](C)(O)C5)c4c3)no2)CC1 [Compound 820]" metric=pIC50 relation_qualifier== data_value=5.43
molecule="CC(C)c1ncn2ccc(-c3nc(C4CCN(C(=O)OC(C)(C)C)CC4)no3)cc12 [Compound 1040]" metric=pIC50 relation_qualifier== data_value=6.10
molecule="O=C(OC1CC1)N1CCC(c2noc(-c3ccnc(C4CCOC4)c3)n2)CC1 (centres unmarked) [Compound 1098]" metric=pIC50 relation_qualifier== data_value=7.21
molecule="CC(C)C(=O)N1CCC(c2noc(-c3ccnc(-c4cnn(C)c4)c3)n2)CC1 [Compound 1187]" metric=pIC50 relation_qualifier=< data_value=4.35
molecule="Fc1c(-c2nc(C3CCNCC3)no2)ccc2cnn(C3COC3)c12 [Compound 989]" metric=pIC50 relation_qualifier=< data_value=4.35

Taken from patent US11873298B2.
